Values compiled from PubChem BioAssay (NCI).

For each record, write down the corresponding GI50.
Test system: M14 melanoma
Assay: NCI tumour cell line growth inhibition, 48 h

Problem: Fill in: GI50 of `COc1cc2c3c(n(CCCN4CCSCC4)c(=O)c2cc1OC)-c1cc2c(cc1C3=O)OCO2` is ___
Result: > 100000 nM

Problem: Need GI50, item `CCc1ccc(C2=NN(c3ccc(S(C)(=O)=O)cc3)C(=O)CC2)cc1`
Result: 639 nM

Problem: Consider the compound N#Cc1cccc(C2C3=C(COC3=O)N(CCO)c3cc4c(cc32)CCC4)c1 (centres undefined) and give its measured GI50.
Result: 83.2 nM

Problem: Which GI50 reading was recorded for the compound `COc1cc(OC)c(/C=C/C(=O)c2c(N)cc(OC)cc2OC)c(OC)c1` ?
Result: 349 nM

Problem: State the recorded GI50 for this entry: `O=C1c2ccccc2-c2c1c1ccc([N+](=O)[O-])cc1c(=O)n2CCCCl`
Result: 47000 nM

Problem: Could you tell me which GI50 is on file for `CCOc1cc(/C=C/C(=O)CC(=O)/C=C/c2ccc(OC(=O)CNCCN(CC)CC)c(OCC)c2)ccc1OC(=O)CNCCN(CC)CC` ?
Result: 1740 nM

Problem: GET /values?readout=GI50&item= `CC(C)C/C(=N\NC(=O)c1ccncc1)c1cc(Cl)ccc1O`
Result: 627 nM

Problem: Could you share which GI50 value was measured for CCc1c(C#N)c(SC(C(N)=O)c2ccccc2)nc(N2CCC(N)CC2)c1C#N (centres undefined) ?
Result: 16200 nM

Problem: If you can, please state the reported GI50 value of `CC1(C)CC(O)CC(C)(C)N1.CC1(C)CC(O)CC(C)(C)N1.CC1(C)CC(O)CC(C)(C)N1.CC1(C)CC(O)CC(C)(C)N1.Cl.[Ti]` .
Result: > 100000 nM
